Measured pEC50, listed per entry for reference.
Biological target: T1, huNav157chimera14+β1-β2-β3 (human, UniProt Q07699 19-218; O60939 30-215; Q9NY72 23-215)
T1 construct: HEK FlpIn line; also called huNav157 chimera 14-beta1-beta2-beta3; Nav157ch14-β1-β2-β3
Assay: binding FACS, HEK FlpIn cells
pEC50: −log10 of the molar value.
assayReadout: pEC50

[[record]]
binder = "F0103262C02 (parental)-FLAG-HIS6 (VHH, also called F0103262CO2; F103262CO2) VHH: EVQLVESGGGLVQAGGSLTLSCAASGLPFGLYILGWIRRAPGKERDFVAAISRSGRDTVYANSVKGRFTISRDNAKNMVYLRMDNLRPEDTAAYYCAVDSVPRGTPTITESEYAIWGQGTLVTVSS"
numericvalue = 6.33

[[record]]
binder = "F0103275B05 (parental)-FLAG-HIS6 (VHH, also called F01033275B05) VHH: EVQLVESGGGLVQPGGSLRLSCAASGSIFNINSMAWYRRAPGKQRELVASSTNGGSTNYADSVKGRFTISRDNAKRVYLQMNSLTPEDTAVYYCNALLQPSIYDISRTYWGQGTLVTVSS"
numericvalue = 7.41

[[record]]
binder = "F0103265B04 (parental)-FLAG-HIS6 (VHH) VHH: EVQLVESGGGLVQPGGSLRLSCAAPSFIFSNNYMEWYRQAPGKQRDWVARITGRGNTNYLDSVKGRFTISRDDAKNTVYLEIDSLKPEDTAVYYCSALWYGGRAWGKGTLVTVSS"
numericvalue = 8.07

[[record]]
binder = "F0103262B06 (parental)-FLAG-HIS6 (VHH) VHH: EVQLVESGGGLVQPGGSLRLSCAGSTRTFSTYAMGWFRQAPGREREFVAHINFSGSSTRYADSVKGRFTISRDNAKNMGYLQMNSLKPEDTAVYYCAARWVAGPPRYDYEYWGQGTLVTVSS"
numericvalue = 7.80

